In this section, each of the molecules is paired with its reported pIC50.
study_system: human Cav2.2 (Homo sapiens, UniProt Q00975)
Construct: cells endogenously expressing human Cav2.2; endogenous in cells
Sequence (Q00975 whole entry): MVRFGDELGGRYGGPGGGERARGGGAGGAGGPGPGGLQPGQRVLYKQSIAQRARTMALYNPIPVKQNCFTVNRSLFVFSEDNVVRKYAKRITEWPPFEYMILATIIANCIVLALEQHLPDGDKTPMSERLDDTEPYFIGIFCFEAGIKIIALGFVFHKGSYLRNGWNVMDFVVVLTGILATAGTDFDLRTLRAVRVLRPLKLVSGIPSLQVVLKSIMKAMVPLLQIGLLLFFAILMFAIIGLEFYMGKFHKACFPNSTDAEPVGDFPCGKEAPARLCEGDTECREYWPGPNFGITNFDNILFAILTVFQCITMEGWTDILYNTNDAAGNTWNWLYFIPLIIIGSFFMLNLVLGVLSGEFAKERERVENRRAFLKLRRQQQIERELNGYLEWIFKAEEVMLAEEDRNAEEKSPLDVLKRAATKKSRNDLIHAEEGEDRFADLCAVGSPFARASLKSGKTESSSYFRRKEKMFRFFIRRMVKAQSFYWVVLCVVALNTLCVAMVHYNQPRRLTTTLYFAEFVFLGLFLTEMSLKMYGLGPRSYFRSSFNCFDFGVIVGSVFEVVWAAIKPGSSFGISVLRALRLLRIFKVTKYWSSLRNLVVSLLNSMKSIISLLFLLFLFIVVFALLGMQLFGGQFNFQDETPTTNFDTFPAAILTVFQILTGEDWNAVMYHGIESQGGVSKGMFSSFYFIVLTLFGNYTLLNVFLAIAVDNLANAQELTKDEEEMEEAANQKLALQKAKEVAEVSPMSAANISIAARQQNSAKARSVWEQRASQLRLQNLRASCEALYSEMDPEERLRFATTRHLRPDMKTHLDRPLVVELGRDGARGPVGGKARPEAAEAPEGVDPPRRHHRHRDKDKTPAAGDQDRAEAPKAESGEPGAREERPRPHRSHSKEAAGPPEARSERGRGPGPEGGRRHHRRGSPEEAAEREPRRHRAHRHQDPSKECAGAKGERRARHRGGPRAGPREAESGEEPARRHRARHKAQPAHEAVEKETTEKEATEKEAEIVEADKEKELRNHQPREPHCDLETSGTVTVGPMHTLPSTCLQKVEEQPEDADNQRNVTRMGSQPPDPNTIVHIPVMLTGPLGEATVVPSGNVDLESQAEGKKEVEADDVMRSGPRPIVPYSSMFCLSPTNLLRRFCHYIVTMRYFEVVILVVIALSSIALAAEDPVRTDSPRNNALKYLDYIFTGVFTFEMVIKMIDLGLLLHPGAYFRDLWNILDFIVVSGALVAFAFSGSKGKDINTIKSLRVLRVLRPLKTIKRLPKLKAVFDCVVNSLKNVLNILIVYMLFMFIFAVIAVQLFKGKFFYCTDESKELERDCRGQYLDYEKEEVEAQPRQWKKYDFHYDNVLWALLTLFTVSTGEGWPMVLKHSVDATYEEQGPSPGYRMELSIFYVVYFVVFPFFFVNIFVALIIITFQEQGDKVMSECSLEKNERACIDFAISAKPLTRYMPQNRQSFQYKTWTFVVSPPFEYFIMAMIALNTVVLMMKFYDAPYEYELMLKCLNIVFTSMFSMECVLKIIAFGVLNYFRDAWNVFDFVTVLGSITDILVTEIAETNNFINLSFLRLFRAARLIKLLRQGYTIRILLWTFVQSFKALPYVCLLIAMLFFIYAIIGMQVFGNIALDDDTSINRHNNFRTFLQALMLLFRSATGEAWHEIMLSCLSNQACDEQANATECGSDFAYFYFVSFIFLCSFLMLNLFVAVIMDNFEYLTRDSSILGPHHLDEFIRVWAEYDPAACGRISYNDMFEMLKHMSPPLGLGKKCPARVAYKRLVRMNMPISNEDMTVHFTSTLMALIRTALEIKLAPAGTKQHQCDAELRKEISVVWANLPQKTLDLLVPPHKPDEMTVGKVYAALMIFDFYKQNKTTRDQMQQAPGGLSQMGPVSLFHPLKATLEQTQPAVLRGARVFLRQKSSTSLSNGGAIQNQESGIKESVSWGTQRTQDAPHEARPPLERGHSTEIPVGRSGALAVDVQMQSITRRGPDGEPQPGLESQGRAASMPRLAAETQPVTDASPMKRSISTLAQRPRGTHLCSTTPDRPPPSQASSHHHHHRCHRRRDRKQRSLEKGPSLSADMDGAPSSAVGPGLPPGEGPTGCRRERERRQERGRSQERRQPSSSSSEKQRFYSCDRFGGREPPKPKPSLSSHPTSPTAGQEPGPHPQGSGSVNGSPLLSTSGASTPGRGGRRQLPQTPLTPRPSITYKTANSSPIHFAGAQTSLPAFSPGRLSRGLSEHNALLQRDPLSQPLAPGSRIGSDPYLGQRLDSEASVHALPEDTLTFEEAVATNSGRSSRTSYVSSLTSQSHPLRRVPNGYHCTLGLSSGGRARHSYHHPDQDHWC
Sequence (P54284 whole entry partner): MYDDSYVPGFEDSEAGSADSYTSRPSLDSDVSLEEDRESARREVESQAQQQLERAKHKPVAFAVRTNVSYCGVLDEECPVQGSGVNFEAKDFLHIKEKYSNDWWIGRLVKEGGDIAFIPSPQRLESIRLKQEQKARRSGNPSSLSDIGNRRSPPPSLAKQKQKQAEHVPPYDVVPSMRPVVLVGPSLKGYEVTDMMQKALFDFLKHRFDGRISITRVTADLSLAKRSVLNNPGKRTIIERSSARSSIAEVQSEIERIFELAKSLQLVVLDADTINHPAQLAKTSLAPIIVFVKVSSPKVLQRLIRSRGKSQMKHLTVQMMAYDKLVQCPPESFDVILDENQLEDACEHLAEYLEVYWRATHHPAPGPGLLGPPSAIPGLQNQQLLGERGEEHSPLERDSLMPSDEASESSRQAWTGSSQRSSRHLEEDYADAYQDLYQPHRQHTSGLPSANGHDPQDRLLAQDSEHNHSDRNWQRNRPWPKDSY
Sequence (P54289 25-956 partner limits assumed): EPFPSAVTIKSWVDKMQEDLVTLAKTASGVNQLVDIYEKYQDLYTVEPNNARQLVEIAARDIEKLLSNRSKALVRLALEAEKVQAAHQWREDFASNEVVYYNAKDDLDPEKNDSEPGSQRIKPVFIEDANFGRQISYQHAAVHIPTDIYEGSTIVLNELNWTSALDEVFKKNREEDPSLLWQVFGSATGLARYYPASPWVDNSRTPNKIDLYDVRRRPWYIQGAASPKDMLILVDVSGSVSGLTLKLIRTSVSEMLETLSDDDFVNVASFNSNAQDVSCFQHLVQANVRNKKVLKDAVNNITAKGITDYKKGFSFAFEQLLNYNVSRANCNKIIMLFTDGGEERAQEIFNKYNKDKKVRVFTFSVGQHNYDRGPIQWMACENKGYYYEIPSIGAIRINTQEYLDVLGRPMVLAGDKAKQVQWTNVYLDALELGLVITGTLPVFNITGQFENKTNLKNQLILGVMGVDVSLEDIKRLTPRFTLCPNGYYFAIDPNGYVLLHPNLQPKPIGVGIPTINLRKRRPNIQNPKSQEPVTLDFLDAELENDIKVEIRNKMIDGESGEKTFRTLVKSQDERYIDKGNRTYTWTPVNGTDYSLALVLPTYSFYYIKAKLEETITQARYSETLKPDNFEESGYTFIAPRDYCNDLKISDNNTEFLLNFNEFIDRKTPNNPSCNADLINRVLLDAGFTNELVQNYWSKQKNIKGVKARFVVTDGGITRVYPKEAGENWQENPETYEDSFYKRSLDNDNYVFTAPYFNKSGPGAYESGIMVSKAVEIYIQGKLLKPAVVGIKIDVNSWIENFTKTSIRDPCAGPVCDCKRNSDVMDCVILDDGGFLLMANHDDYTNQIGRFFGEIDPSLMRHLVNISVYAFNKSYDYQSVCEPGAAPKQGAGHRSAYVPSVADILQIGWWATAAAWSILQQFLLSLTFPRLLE
Sequence (P54289 957-1103 partner limits assumed): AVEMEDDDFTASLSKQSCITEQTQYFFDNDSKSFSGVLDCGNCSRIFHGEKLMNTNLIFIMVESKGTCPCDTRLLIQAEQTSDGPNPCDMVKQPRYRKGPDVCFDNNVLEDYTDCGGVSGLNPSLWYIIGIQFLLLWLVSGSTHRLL
assay_info: Calcium flux (FLIPR, Calcium 4 dye) in IMR32 cells endogenously expressing human Cav2.2
measurement_context: 60 minute pre-incubation, 2 μM nifedipine to block L-type channels, depolarized with 80 mM KCl, 5 mM CaCl2, average of n≥2 runs unless marked *
pIC50 here: minus log base 10 of the concentration, concentration in moles per litre.

Exercise: I would be grateful if you could share the reported pIC50 for O=C1CCN(Cc2cccc(C(F)(F)F)c2)C[C@@H]2C[C@@H](Oc3cnc(C4CC4)cn3)CN12 [Example 42] .
Key: 6.04

Exercise: Now the molecule O=C(c1cc(C(F)(F)F)ccc1F)N1CCCN2C[C@H](Oc3cnc(C4CC4)cn3)C[C@H]2C1 [Example 17]
Key: 5.80

Exercise: Now the molecule O=C1CCN(c2ccc(C(F)(F)F)cn2)C[C@@H]2C[C@H](Oc3cnc(C4CC4)cn3)CN12 [Example 30]
Key: 5.20

Exercise: Now the molecule O=C1[C@H](Oc2ccc(C(F)(F)F)cn2)C[C@H]2CN(S(=O)(=O)c3cccc(C(F)(F)F)c3)CCCN12 [Example 4]
Key: 6.06

Exercise: Now the molecule O=C(c1cccc(C(F)(F)F)c1)N1CCCN2C[C@H](Oc3cnc(C4CC4)cn3)C[C@H]2C1 [Example 7]
Key: 5.78

---

study_system: human Cav2.2 (Homo sapiens, UniProt Q00975)
Construct: cells endogenously expressing human Cav2.2; endogenous in cells
assay_info: Calcium flux (FLIPR, Calcium 4 dye) in IMR32 cells endogenously expressing human Cav2.2
measurement_context: 60 minute pre-incubation, 2 μM nifedipine to block L-type channels, depolarized with 80 mM KCl, 5 mM CaCl2, average of n≥2 runs unless marked *
In this section, each of the molecules is paired with its reported pIC50.
pIC50 here: minus log base 10 of the concentration, concentration in moles per litre.

O=C1CCN(Cc2ccc(OC(F)(F)F)cc2)C[C@@H]2C[C@@H](Oc3cnc(C4CC4)cn3)CN12 5.78
O=C1CCN(c2ccc(C(F)(F)F)cn2)C[C@H]2C[C@@H](Oc3cnc(C4CC4)cn3)CN12 5.46

We now examine a further molecule.
Exercise: I would be grateful if you could share the reported pIC50 for O=C(c1ccc(C(F)(F)F)cc1F)N1CCCN2C[C@H](Oc3cnc(C4CC4)cn3)C[C@H]2C1 .
Key: 5.92

---

study_system: human Cav2.2 (Homo sapiens, UniProt Q00975)
Construct: cells endogenously expressing human Cav2.2; endogenous in cells
assay_info: Calcium flux (FLIPR, Calcium 4 dye) in IMR32 cells endogenously expressing human Cav2.2
measurement_context: 60 minute pre-incubation, 2 μM nifedipine to block L-type channels, depolarized with 80 mM KCl, 5 mM CaCl2, average of n≥2 runs unless marked *
value_kind: IC50 (nM)
Please reply with the bare figure in nM and do not write the unit itself.

These recorded examples may help you get a feel for the data.
compound	IC50 / nM
O=C1[C@H]2C[C@@H](Oc3cnc(C4CC4)cn3)CN2CCCN1Cc1ccc(C(F)(F)F)cc1 [Example 24]	2940
O=C1CCN(Cc2ccc(OC(F)(F)F)cc2)C[C@@H]2C[C@H](Oc3cnc(C4CC4)cn3)CN12 [Example 59]	3170
O=C(C(O)c1cccc(C(F)(F)F)c1)N1CCC(=O)N2C[C@H](Oc3cnc(C4CC4)cn3)C[C@H]2C1 (some centres unmarked) [Example 40]	4700
O=C(c1cccc(C(F)(F)F)c1F)N1CCCN2C[C@H](Oc3cnc(C4CC4)cn3)C[C@H]2C1 [Example 10]	920
O=C1CCN(Cc2cccc(C(F)(F)F)c2)C[C@@H]2C[C@@H](Oc3ccc(C(F)(F)F)cn3)CN12 [Example 45]	620

Exercise: I would be grateful if you could share the reported IC50 for O=C(c1ccc(C(F)(F)F)cc1)N1CCC(=O)N2C[C@H](Oc3cnc(C4CC4)cn3)C[C@H]2C1 [Example 33] .
Key: 3730

Exercise: Now the compound O=C1CCN(c2ccc(C(F)(F)F)cn2)C[C@@H]2C[C@@H](Oc3cnc(C4CC4)cn3)CN12 [Example 47]
Key: 2520

---

study_system: human Cav2.2 (Homo sapiens, UniProt Q00975)
Construct: cells endogenously expressing human Cav2.2; endogenous in cells
assay_info: Calcium flux (FLIPR, Calcium 4 dye) in IMR32 cells endogenously expressing human Cav2.2
measurement_context: 60 minute pre-incubation, 2 μM nifedipine to block L-type channels, depolarized with 80 mM KCl, 5 mM CaCl2, average of n≥2 runs unless marked *
value_kind: IC50 (µM)
Please reply with the bare figure in µM and do not write the unit itself.

These recorded examples may help you get a feel for the data.
O=C1CCN(c2ncc(C(F)(F)F)cc2Cl)C[C@@H]2C[C@@H](Oc3cnc(C4CC4)cn3)CN12 2.13
O=C(c1cccc(C(F)(F)F)c1)N1CCC(=O)N2C[C@H](Oc3cnc(C4CC4)cn3)C[C@H]2C1 1.72
O=C1[C@@H](Oc2ccc(C(F)(F)F)cn2)C[C@H]2CN(S(=O)(=O)c3cccc(C(F)(F)F)c3)CCCN12 1.25
O=C1CCN(S(=O)(=O)c2ccc(C(F)(F)F)cc2)C[C@H]2C[C@H](Oc3cnc(C4CC4)cn3)CN12 2.2

Exercise: I would be grateful if you could share the reported IC50 for O=C1[C@@H](Oc2ccc(C(F)(F)F)cn2)C[C@H]2CN(S(=O)(=O)c3ccc(C(F)(F)F)cc3)CCCN12 .
Key: 1.76

Exercise: Now the compound O=C1[C@@H]2C[C@@H](Oc3cnc(C4CC4)cn3)CN2CCCN1Cc1ccc(C(F)(F)F)cc1
Key: 0.98

Exercise: Now the compound O=C1CCN(S(=O)(=O)c2ccc(C(F)(F)F)cc2)C[C@@H]2C[C@@H](Oc3ccc(C(F)(F)F)cn3)CN12
Key: 1.26

Exercise: Now the compound O=C1CCN(c2cnc(C3CC3)cn2)C[C@@H]2C[C@@H](Oc3ccc(C(F)(F)F)cn3)CN12
Key: 7.35

Exercise: Now the compound O=C1CCN(S(=O)(=O)c2ccc(C(F)(F)F)cc2)C[C@H]2C[C@@H](Oc3cnc(C4CC4)cn3)CN12
Key: 3.75

Exercise: Now the compound O=C(c1ccc(C(F)(F)F)c(F)c1)N1CCC(=O)N2C[C@H](Oc3cnc(C4CC4)cn3)C[C@H]2C1
Key: 1.03

Exercise: Now the compound O=C1[C@@H]2C[C@@H](Oc3cnc(C4CC4)cn3)CN2CCCN1Cc1ccc(F)c(C(F)(F)F)c1
Key: 1.1

Exercise: Now the compound O=C(c1cccc(C(F)(F)F)c1F)N1CCC(=O)N2C[C@H](Oc3cnc(C4CC4)cn3)C[C@H]2C1
Key: 1.01

Exercise: Now the compound O=C(c1cccc(C(F)(F)F)c1)N1CCC(=O)N2C[C@H](Oc3cnc(C4CC4)cn3)C[C@@H]2C1
Key: 11.2

Exercise: Now the compound O=C1[C@@H]2C[C@@H](Oc3cnc(C4CC4)cn3)CN2CCCN1c1cccc(C(F)(F)F)c1
Key: 10

Exercise: Now the compound FC(F)(F)c1cccc(N2CCCN3C[C@H](Oc4cnc(C5CC5)cn4)C[C@H]3C2)n1
Key: 0.75

Exercise: Now the compound O=C1CCN(S(=O)(=O)c2ccc(C(F)(F)F)cc2)C[C@@H]2C[C@@H](Oc3cnc(C4CC4)cn3)CN12
Key: 0.49
